Listing: pIC50 of selected compounds
Test system: HY926 cells
assay.summary: MTT cytotoxicity assay, HY926 (non-tumor)
Format: cell-based
details: MTT, 72 h, mean ± SD (n = 3), non-tumor cells
pIC50: −log10 of the molar value.

# example entries with known answers
compound: COc1cc(CCC(=O)OC2CCC3(C)C(CCC4(C)C3C(=O)C=C3C5CC(C)(C(=O)O)CCC5(C)CCC34C)C2(C)C)cc(OC)c1OC (stereo not drawn)
measured.target: HY926 cells
pIC50: < 4.30

compound: COc1ccccc1/C=C/C(=O)OC1CCC2(C)C(CCC3(C)C2C(=O)C=C2C4CC(C)(C(=O)O)CCC4(C)CCC23C)C1(C)C (stereo not drawn)
measured.target: HY926 cells
pIC50: < 4.30

# evaluate next
Item COc1ccc(C=CC(=O)OC2CCC3(C)C(CCC4(C)C3C(=O)C=C3C5CC(C)(C(=O)O)CCC5(C)CCC34C)C2(C)C)cc1 (stereo not drawn) with HY926 cells - pIC50?
< 4.30
